Let's look at some compounds and their measured IC50.
biological target: wild-type un-phosphorylated FGFR3 (Homo sapiens, UniProt P22607)
Sequence (P22607 23-806): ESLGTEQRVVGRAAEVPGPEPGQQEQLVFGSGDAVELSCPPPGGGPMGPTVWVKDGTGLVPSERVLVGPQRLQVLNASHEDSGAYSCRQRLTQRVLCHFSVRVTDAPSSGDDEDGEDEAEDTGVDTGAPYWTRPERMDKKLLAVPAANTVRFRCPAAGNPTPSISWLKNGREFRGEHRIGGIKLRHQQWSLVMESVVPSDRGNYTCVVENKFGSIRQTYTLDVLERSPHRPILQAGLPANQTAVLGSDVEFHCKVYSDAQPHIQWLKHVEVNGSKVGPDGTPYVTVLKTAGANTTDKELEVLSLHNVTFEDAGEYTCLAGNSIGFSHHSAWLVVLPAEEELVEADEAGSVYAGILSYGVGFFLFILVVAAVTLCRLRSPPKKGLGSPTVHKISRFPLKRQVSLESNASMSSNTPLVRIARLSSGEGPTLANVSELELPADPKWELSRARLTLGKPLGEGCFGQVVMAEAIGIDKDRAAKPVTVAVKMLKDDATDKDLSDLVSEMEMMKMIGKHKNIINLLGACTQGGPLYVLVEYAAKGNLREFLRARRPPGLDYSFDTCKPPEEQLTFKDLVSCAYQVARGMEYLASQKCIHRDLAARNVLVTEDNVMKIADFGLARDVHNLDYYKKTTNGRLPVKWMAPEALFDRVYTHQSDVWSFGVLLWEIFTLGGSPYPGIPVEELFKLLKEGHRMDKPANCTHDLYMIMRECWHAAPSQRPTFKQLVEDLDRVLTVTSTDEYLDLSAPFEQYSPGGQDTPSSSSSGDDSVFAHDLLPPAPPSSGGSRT
endpoint.name: IC50

>>> reported_result("CNC(=O)c1cc(CN2CCCC2)c(F)c(-c2cnc3cc(-c4cnn(C)c4)c(O[C@H]4CCOC4)nn23)c1")
"10 to 100 nM"
>>> reported_result("COc1nn2c(-c3cccc(NC(C)=O)c3)cnc2cc1-c1cnn(C)c1")
"< 10 nM"
>>> reported_result("CNC(=O)c1cc(-c2cnc3cc(-c4cnn5c4CNCC5)c(O[C@H]4CCOC4)nn23)c(F)c(C(F)F)c1")
"10 to 100 nM"
>>> reported_result("Cn1cc(-c2cc3ncc(-c4ccc5oncc5c4)n3nc2OC2CCOC2)cn1 (centres unmarked)")
"10 to 100 nM"
>>> reported_result("CNC(=O)c1cc(-c2cnc3cc(-c4cnn(C)c4)c(O[C@H]4CCOC4)nn23)c(F)c(N(C)C)c1")
"10 to 100 nM"
>>> reported_result("CCOc1cccc(-c2cnc3cc(-c4cnn(C)c4)c(O[C@H]4CCOC4)nn23)c1")
"10 to 100 nM"
>>> reported_result("COc1nn2c(-c3cc(C(=O)NCC(F)(F)F)ccc3F)cnc2cc1-c1cnn(C)c1")
"10 to 100 nM"
>>> reported_result("CNC(=O)c1cc(F)c(F)c(-c2cnc3cc(-c4cnn(CCN5CCCC5=O)c4)c(O[C@H]4CCOC4)nn23)c1")
"< 10 nM"

---

biological target: wild-type un-phosphorylated FGFR2 (Homo sapiens)
Sequence (P21802 22-821): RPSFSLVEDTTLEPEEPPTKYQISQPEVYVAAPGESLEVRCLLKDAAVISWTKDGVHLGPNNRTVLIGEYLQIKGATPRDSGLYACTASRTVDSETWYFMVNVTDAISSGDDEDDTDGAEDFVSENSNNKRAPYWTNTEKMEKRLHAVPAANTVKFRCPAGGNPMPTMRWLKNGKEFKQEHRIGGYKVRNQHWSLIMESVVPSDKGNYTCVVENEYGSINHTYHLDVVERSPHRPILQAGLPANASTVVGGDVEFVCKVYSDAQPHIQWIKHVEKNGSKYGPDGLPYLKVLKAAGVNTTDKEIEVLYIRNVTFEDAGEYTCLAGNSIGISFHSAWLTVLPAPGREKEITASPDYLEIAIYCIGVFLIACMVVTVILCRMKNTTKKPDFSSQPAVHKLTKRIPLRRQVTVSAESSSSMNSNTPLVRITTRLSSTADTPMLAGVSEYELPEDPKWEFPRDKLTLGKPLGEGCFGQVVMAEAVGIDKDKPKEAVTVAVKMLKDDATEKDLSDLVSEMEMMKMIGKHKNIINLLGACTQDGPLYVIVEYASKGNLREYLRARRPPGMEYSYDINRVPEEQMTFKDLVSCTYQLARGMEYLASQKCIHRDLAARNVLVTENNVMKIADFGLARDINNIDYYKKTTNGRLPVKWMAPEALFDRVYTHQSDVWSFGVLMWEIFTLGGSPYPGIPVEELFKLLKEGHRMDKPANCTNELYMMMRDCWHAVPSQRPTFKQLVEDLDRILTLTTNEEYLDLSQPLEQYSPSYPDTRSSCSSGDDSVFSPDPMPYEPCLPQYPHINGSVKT
pIC50: −log10 of the molar value.
endpoint.name: pIC50

>>> reported_result("CNC(=O)c1cc(-c2cnc3cc(-c4cnn(CCN5CCOCC5)c4)c(O[C@H]4CCOC4)nn23)c(F)c(C(F)F)c1 [Example 30]")
"> 8.00"
>>> reported_result("CNC(=O)c1cc(F)c(F)c(-c2cnc3cc(-c4cnn(C(C)C)c4)c(O[C@H]4CCOC4)nn23)c1 [Example 24]")
"> 8.00"
>>> reported_result("CNC(=O)c1cc(F)c(F)c(-c2cnc3cc(-c4cnn5c4CCC5)c(O[C@H]4CCOC4)nn23)c1 [Example 22]")
"> 8.00"
>>> reported_result("CNC(=O)c1cc(F)c(F)c(-c2cnc3cc(-c4ccc(C)nc4)c(O[C@H]4CCOC4)nn23)c1 [Example 21]")
"7.00 to 8.00"
>>> reported_result("CNC(=O)c1cc(F)c(F)c(-c2cnc3cc(-c4cnn(C)c4)c(O[C@H]4CCOC4)nn23)c1 [Example 43]")
"> 8.00"
>>> reported_result("CNC(=O)c1cccc(-c2cnc3cc(-c4cnn(C)c4)c(OC4COC4)nn23)c1 [Example 58]")
"> 8.00"
>>> reported_result("CNC(=O)c1cccc(-c2cnc3cc(-c4cnn(C)c4)c(O[C@H]4CCOC4)nn23)c1 [Example 63]")
"> 8.00"
>>> reported_result("CNC(=O)c1cc(-c2cnc3cc(-c4ccc(N5CCCC5)nc4)c(O[C@H]4CCOC4)nn23)c(F)c(C(F)F)c1 [Example 32]")
"> 8.00"
>>> reported_result("CNC(=O)c1cc(-c2cnc3cc(-c4cnn(C(C)(C)C#N)c4)c(O[C@H]4CCOC4)nn23)c(F)c(C(F)F)c1 [Example 26]")
"> 8.00"
>>> reported_result("CNC(=O)c1cc(-c2cnc3cc(-c4cnn5ccccc45)c(O[C@H]4CCOC4)nn23)c(F)c(C(F)F)c1 [Example 27]")
"7.00 to 8.00"
>>> reported_result("CNC(=O)c1cc(F)c(F)c(-c2cnc3cc(-c4cnn(C5CCC5)c4)c(O[C@H]4CCOC4)nn23)c1 [Example 25]")
"> 8.00"
>>> reported_result("CNC(=O)c1cc(-c2cnc3cc(-c4ccc(C(=O)NC)c(F)c4)c(O[C@H]4CCOC4)nn23)c(F)c(C(F)F)c1 [Example 36]")
"7.00 to 8.00"
>>> reported_result("CNC(=O)c1cc(C)c(F)c(-c2cnc3cc(-c4cnn(C)c4)c(O[C@H]4CCOC4)nn23)c1 [Example 42]")
"> 8.00"
>>> reported_result("CNC(=O)c1cc(F)c(F)c(-c2cnc3cc(-c4cnn(C)c4)c(OCCOC)nn23)c1 [Example 20]")
"> 8.00"
>>> reported_result("CNC(=O)c1cc(-c2cnc3cc(-c4cnn(C)c4)c(O[C@H]4CCOC4)nn23)c(F)c(C(F)F)c1 [Example 41]")
"> 8.00"

---

wild-type un-phosphorylated FGFR3 (Homo sapiens) pIC50 data
pIC50: −log10 of the molar value.
endpoint.name: pIC50

>>> reported_result("CNC(=O)c1cc(-c2cnc3cc(-c4cnn(Cc5cccnc5)c4)c(O[C@H]4CCOC4)nn23)c(F)c(C(F)F)c1 [Example 29]")
"> 8.00"
>>> reported_result("CNC(=O)c1cc(F)c(F)c(-c2cnc3cc(-c4cnn(C)c4)c(O[C@H]4CCN(C)C4)nn23)c1 [Example 16]")
"≤ 6.40"
>>> reported_result("CNC(=O)c1cc(-c2cnc3cc(-c4cnn(CCN5CCOCC5)c4)c(O[C@H]4CCOC4)nn23)c(F)c(C(F)F)c1 [Example 30]")
"> 8.00"
>>> reported_result("COc1nn2c(-c3cncc(C)c3)cnc2cc1-c1cnn(C)c1 [Example 3]")
"6.40 to 7.00"
>>> reported_result("CNC(=O)c1cc(CO)c(F)c(-c2cnc3cc(-c4cnn(C)c4)c(O[C@H]4CCOC4)nn23)c1 [Example 40]")
"> 8.00"
>>> reported_result("CC(C)n1cc(-c2cc3ncc(-c4cccc(F)c4F)n3nc2O[C@H]2CCOC2)cn1 [Example 46]")
"7.00 to 8.00"
>>> reported_result("CNC(=O)c1cccc(-c2cnc3cc(-c4cnn(C)c4)c(OC)cn23)c1 [Example 1]")
"7.00 to 8.00"
>>> reported_result("CNC(=O)c1cc(F)c(F)c(-c2cnc3cc(-c4ccc(C)nc4)c(O[C@H]4CCOC4)nn23)c1 [Example 21]")
"> 8.00"
>>> reported_result("CNC(=O)c1cc(-c2cnc3cc(-c4cnn(C)c4)c(O[C@H]4CCOC4)nn23)c(F)c(C2CC2)c1 [Example 38]")
"> 8.00"
>>> reported_result("CNC(=O)c1cc(F)c(F)c(-c2cnc3cc(-c4ccncc4)c(O[C@H]4CCOC4)nn23)c1 [Example 72]")
"> 8.00"
>>> reported_result("CNC(=O)c1cc(F)c(F)c(-c2cnc3cc(-c4cnn(C)c4)c(N[C@H]4CCOC4)nn23)c1 [Example 19]")
"> 8.00"
